// data source = patent US6495569B1

Measured % inhibition at 10 μmol/L values are reported for all entries that follow.
Measured Target: CXCR3 (Homo sapiens)
Construct: expressed in transfected cells; membrane preparation
Sequence (P49682 whole entry): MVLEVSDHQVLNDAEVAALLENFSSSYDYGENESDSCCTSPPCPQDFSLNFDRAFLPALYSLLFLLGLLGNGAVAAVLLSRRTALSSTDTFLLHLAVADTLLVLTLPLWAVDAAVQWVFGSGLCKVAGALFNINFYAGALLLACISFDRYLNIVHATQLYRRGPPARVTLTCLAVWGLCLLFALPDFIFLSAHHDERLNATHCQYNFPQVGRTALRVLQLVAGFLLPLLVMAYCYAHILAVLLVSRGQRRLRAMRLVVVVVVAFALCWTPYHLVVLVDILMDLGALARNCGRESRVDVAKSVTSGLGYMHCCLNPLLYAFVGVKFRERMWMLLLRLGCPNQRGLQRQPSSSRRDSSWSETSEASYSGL
Test Name: CXCR3/IP-10 radioligand binding assay (125I-IP-10 competition on CXCR3.L1/2 cell membranes)
Assay Context: test compound 10 μmol/L; 125I-labeled IP-10 0.05 to 0.2 nmol/L; CXCR3.L1/2 transfectant cell membranes; 60 min at room temperature
Dear colleague, please return just the value in %, with no unit written.

Recorded % inhibition at 10 μmol/L, per entry:
Structure | Endpoint Value
N#CC(C#N)=C1N(CCSCc2ccc(CN3CCCCC3)cc2)CCN1Cc1cccc2ccccc12 | 94
Cc1cccc(CN2CCN(CCSCc3cccc(CN4CCCCC4)c3)C2=C(C#N)C#N)c1C | 91
N#CC(C#N)=C1N(CCSCc2cccc(CN3CCCCC3)c2)CCN1Cc1cccc2ccccc12 | 108

Proceeding to the next compound to report its % inhibition at 10 μmol/L.
The compound N#CC(C#N)=C1N(CCCc2ccccc2)CCN1CCSCc1cccc(CN2CCCCC2)c1 , tested on CXCR3 (Homo sapiens), showed % inhibition at 10 μmol/L of 86
